Target: rat histamine H3 receptor (Rattus norvegicus (Rat))
Sequence (Q9QYN8 whole entry): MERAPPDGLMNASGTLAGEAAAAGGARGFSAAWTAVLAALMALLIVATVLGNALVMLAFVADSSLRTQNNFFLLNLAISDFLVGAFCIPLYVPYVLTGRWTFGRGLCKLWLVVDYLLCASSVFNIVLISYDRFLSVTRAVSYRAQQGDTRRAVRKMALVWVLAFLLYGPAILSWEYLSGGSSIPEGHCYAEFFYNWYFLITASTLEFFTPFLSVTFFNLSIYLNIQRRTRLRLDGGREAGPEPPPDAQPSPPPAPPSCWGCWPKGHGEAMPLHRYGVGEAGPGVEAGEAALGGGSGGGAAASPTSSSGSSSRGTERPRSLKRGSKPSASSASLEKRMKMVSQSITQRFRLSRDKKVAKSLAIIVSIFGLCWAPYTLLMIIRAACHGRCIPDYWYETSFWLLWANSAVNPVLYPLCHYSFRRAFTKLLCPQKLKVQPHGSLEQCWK
pKi: −log10 of the molar value. Where a name gives a salt, the structure may show the parent alone.
List of pKi values.
Experimental readout: pKi

Compound	Target entity	Experimental readout	Inequality operator	Reported
CN(C)CCNc1ccnc(N)n1 [Example 2, 2,2,2-trifluoroacetate]	rat histamine H3 receptor (Rattus norvegicus (Rat))	pKi	=	7.70
Cl.Cl.Nc1nccc(N[C@@H]2CCNC2)n1 [Example 18, dihydrochloride]	rat histamine H3 receptor (Rattus norvegicus (Rat))	pKi	=	6.79
Nc1nccc(NC2CCNCC2)n1 [Example 24, dihydrochloride]	rat histamine H3 receptor (Rattus norvegicus (Rat))	pKi	=	6.98
CN1CCN(c2ccnc(N)n2)CC1	rat histamine H3 receptor (Rattus norvegicus (Rat))	pKi	=	8.13
Nc1nccc(N2CCNCC2)n1 [Example 25, dihydrochloride]	rat histamine H3 receptor (Rattus norvegicus (Rat))	pKi	=	8.24
Nc1nccc(N2C[C@H]3CN(Cc4ccccc4)C[C@H]3C2)n1	rat histamine H3 receptor (Rattus norvegicus (Rat))	pKi	=	6.77
NCCNc1ccnc(N)n1.O=C(O)C(O)C(O)C(=O)O	rat histamine H3 receptor (Rattus norvegicus (Rat))	pKi	=	8.26
CN(C)CCN(C)c1ccnc(N)n1 [Example 3, dihydrochloride]	rat histamine H3 receptor (Rattus norvegicus (Rat))	pKi	<	6.51
CN(C)CCCN(C)c1ccnc(N)n1.O=C(O)C(O)C(O)C(=O)O	rat histamine H3 receptor (Rattus norvegicus (Rat))	pKi	<	6.51
Nc1nccc(N2CCC3(CC2)CNC3)n1 [Example 23, trihydrochloride]	rat histamine H3 receptor (Rattus norvegicus (Rat))	pKi	=	7.91
Cl.Cl.Nc1nccc(N2CCC(N)CC2)n1 [Example 20, dihydrochloride]	rat histamine H3 receptor (Rattus norvegicus (Rat))	pKi	=	7.23
CNCCCNc1ccnc(N)n1 [Example 7, dihydrochloride]	rat histamine H3 receptor (Rattus norvegicus (Rat))	pKi	=	7.09
Nc1nccc(NC2CNC2)n1 [Example 22, trihydrochloride]	rat histamine H3 receptor (Rattus norvegicus (Rat))	pKi	=	7.01
Nc1nccc(NC2CCN(Cc3ccccc3)CC2)n1 [Example 12, 2,2,2-trifluoroacetate]	rat histamine H3 receptor (Rattus norvegicus (Rat))	pKi	=	7.61
CN(CCCN)c1ccnc(N)n1 [Example 8, dihydrochloride]	rat histamine H3 receptor (Rattus norvegicus (Rat))	pKi	=	6.71
NCCCNc1ccnc(N)n1 [Example 6, dihydrochloride]	rat histamine H3 receptor (Rattus norvegicus (Rat))	pKi	=	7.88

Measured values drawn from patent US8796297B2 for this set.
